src = patent US10196425B2

Biological target: MC3R (Homo sapiens)
Assay: cAMP assay (β-galactosidase reporter, cAMP Hunter), MC3R
Type: cell-based
Settings: agonist cAMP stimulation; read-out: cAMP Assay (EC-50) MC3R
Bridge positions count the residues as written; N and C are the ends. Square brackets hold non-standard residues; d marks the D form. Peptide text beside a SMILES is read from it. hCys = N[C@@H](CCS)C(=O)O
Assign pEC50 to each entry below.
Answers are plain numbers, as −log10 of the molar value.

Below: 5 molecules and their reported pEC50.
>>> test_value("CC(=O)N[C@@H](CCCNC(=N)N)C(=O)N[C@H]1CSSC[C@@H](C(N)=O)NC(=O)[C@H](Cc2c[nH]c3ccccc23)NC(=O)[C@H](CCCNC(=N)N)NC(=O)[C@@H](Cc2ccccc2)NC(=O)[C@H](CCC(N)=O)NC(=O)[C@@H](C)NC1=O [Compound 8] (Ac-RC[dA]Q[dF]RWC-NH2; disulfide 2-8)")
8.07
>>> test_value("CC(=O)N[C@@H](CCCNC(=N)N)C(=O)N[C@H]1CSSC[C@@H](C(N)=O)NC(=O)[C@H](Cc2c[nH]c3ccccc23)NC(=O)[C@H](CCCNC(=N)N)NC(=O)[C@@H](Cc2ccccc2)NC(=O)[C@H](Cc2c[nH]cn2)NC(=O)[C@@H](C(C)C)NC1=O [Compound 4]")
8.80
>>> test_value("CC(=O)N[C@@H](CCCNC(=N)N)C(=O)N[C@H]1CSSC[C@@H](C(N)=O)NC(=O)[C@H](Cc2c[nH]c3ccccc23)NC(=O)[C@H](CCCNC(=N)N)NC(=O)[C@@H](Cc2ccccc2)NC(=O)[C@H](Cc2c[nH]cn2)NC(=O)[C@@H](CC(C)C)NC1=O [Compound 1]")
9.10
>>> test_value("CC(=O)N[C@@H](CCCNC(=N)N)C(=O)N[C@H]1CCSSC[C@@H](C(N)=O)NC(=O)[C@H](Cc2c[nH]c3ccccc23)NC(=O)[C@H](CCCNC(=N)N)NC(=O)[C@@H](Cc2ccccc2)NC(=O)[C@H](C)NC1=O [Compound 15] (Ac-R[hCys]A[dF]RWC-NH2; disulfide 2-7)")
9.00
>>> test_value("CC(=O)N[C@@H](CCCNC(=N)N)C(=O)N[C@H]1CSSC[C@@H](C(N)=O)NC(=O)[C@H](Cc2c[nH]c3ccccc23)NC(=O)[C@H](CCCNC(=N)N)NC(=O)[C@@H](Cc2ccccc2)NC(=O)[C@H](CCCNC(=N)N)NC(=O)[C@@H](C)NC1=O [Compound 10] (Ac-RC[dA]R[dF]RWC-NH2; disulfide 2-8)")
8.41

Please turn your attention to the following entry.
q: Record request: pEC50 value, item CC(=O)N[C@@H](CCCNC(=N)N)C(=O)N[C@H]1CSSC[C@@H](C(N)=O)NC(=O)[C@H](Cc2c[nH]c3ccccc23)NC(=O)[C@H](CCCNC(=N)N)NC(=O)[C@@H](Cc2ccccc2)NC(=O)[C@H](CC(N)=O)NC(=O)[C@@H](C)NC1=O [Compound 9] (Ac-RC[dA]N[dF]RWC-NH2; disulfide 2-8)
a: 7.09

* * *

Target: MC1R (Homo sapiens)
Sequence (Q01726 whole entry): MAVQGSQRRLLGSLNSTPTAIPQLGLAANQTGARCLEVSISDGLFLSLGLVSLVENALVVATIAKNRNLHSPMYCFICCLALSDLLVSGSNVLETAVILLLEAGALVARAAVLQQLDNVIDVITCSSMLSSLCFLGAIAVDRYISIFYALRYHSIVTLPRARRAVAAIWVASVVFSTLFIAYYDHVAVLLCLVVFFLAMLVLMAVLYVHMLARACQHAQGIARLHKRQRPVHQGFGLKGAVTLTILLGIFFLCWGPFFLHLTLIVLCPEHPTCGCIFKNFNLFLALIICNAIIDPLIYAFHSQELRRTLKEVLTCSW
Assay: cAMP assay (β-galactosidase reporter, cAMP Hunter), MC1R
Type: cell-based
Conditions: EC50(MC1R)/EC50(MC4R)
Bridge positions count the residues as written; N and C are the ends. Square brackets hold non-standard residues; d marks the D form. Peptide text beside a SMILES is read from it. Pen = CC(C)(S)[C@H](N)C(=O)O; hCys = N[C@@H](CCS)C(=O)O
Experimental readout: Ratios of EC50 values MC ¼
Give bare numbers.

Batch request: Ratios of EC50 values MC ¼ for each of the following compounds.
1. CC(=O)N[C@@H](CCCNC(=N)N)C(=O)N[C@H]1CCSSC(C)(C)[C@@H](C(N)=O)NC(=O)[C@H](Cc2c[nH]c3ccccc23)NC(=O)[C@H](CCCNC(=N)N)NC(=O)[C@@H](Cc2ccccc2)NC(=O)[C@@H](C)NC1=O [Compound 17] (Ac-R[hCys][dA][dF]RW[Pen]-NH2; disulfide 2-7)
2. CC(=O)N[C@@H](CCCNC(=N)N)C(=O)N[C@H]1CCSSC[C@@H](C(N)=O)NC(=O)[C@H](Cc2c[nH]c3ccccc23)NC(=O)[C@H](CCCNC(=N)N)NC(=O)[C@@H](Cc2ccccc2)NC(=O)[C@@H](C)NC1=O [Compound 16] (Ac-R[hCys][dA][dF]RWC-NH2; disulfide 2-7)
3. CC(=O)N[C@@H](CCCNC(=N)N)C(=O)N[C@H]1CSSC[C@@H](C(N)=O)NC(=O)[C@H](Cc2c[nH]c3ccccc23)NC(=O)[C@H](CCCNC(=N)N)NC(=O)[C@@H](Cc2ccccc2)NC(=O)[C@H](Cc2c[nH]c3ccccc23)NC(=O)[C@@H](C)NC1=O [Compound 7] (Ac-RC[dA]W[dF]RWC-NH2; disulfide 2-8)

a:
[15, 120, 8]

* * *

Biological target: MC3R (Homo sapiens, UniProt P41968)
Sequence (P41968 whole entry): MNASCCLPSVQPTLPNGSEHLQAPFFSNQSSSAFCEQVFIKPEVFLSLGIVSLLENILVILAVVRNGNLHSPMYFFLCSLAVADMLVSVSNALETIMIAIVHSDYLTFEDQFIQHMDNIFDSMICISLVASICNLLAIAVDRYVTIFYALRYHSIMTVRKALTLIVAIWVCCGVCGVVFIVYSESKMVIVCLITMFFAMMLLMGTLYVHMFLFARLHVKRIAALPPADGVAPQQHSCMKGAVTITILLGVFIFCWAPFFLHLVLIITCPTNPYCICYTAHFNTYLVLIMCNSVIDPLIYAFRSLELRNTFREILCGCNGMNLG
Assay: cAMP assay (β-galactosidase reporter, cAMP Hunter), MC3R
Format: cell-based
Conditions: EC50(MC3R)/EC50(MC4R)
Text: cAMP Accumulation Measurement Via a β-Galactosidase (β-Gal) Reporter System A chemiluminescence readout system that uses an enzyme fragment complementation (EFC) system with β-galactosidase (β-Gal) as the functional reporter system was used. This assay system for various melanocortin receptor systems is commercially available (cAMP Hunter GPCR assay system, Discoverx Corp, Fremont, Calif.). […]
Bridge positions count the residues as written; N and C are the ends. Square brackets hold non-standard residues; d marks the D form. Peptide text beside a SMILES is read from it.
Experimental readout: Ratios of EC50 values MC ¾
One number for each entry.

Reference set, count: 2
>>> test_value("CC(=O)N[C@@H](CCCNC(=N)N)C(=O)N[C@H]1CSSC[C@@H](C(N)=O)NC(=O)[C@H](Cc2c[nH]c3ccccc23)NC(=O)[C@H](CCCNC(=N)N)NC(=O)[C@@H](Cc2ccccc2)NC(=O)[C@H](Cc2cncn2C)NC(=O)[C@@H](C)NC1=O")
350
>>> test_value("CC(=O)N[C@@H](CCCNC(=N)N)C(=O)N[C@H]1CSSC[C@@H](C(N)=O)NC(=O)[C@H](Cc2c[nH]c3ccccc23)NC(=O)[C@H](CCCNC(=N)N)NC(=O)[C@@H](Cc2ccccc2)NC(=O)[C@H](CCC(N)=O)NC(=O)[C@@H](C)NC1=O [Compound 8] (Ac-RC[dA]Q[dF]RWC-NH2; disulfide 2-8)")
5

With those in mind, consider the next molecule.
q: Give the reported Ratios of EC50 values MC ¾ for CC(=O)N[C@@H](CCCNC(=N)N)C(=O)N[C@H]1CSSC[C@@H](C(N)=O)NC(=O)[C@H](Cc2c[nH]c3ccccc23)NC(=O)[C@H](CCCNC(=N)N)NC(=O)[C@@H](Cc2ccccc2)NC(=O)[C@H](CCCNC(=N)N)NC(=O)[C@@H](C)NC1=O [Compound 10] (Ac-RC[dA]R[dF]RWC-NH2; disulfide 2-8) (system: MC3R (Homo sapiens, UniProt P41968)).
a: 1.45

* * *

Target: MC4R (Homo sapiens, UniProt P32245)
Sequence (P32245 whole entry): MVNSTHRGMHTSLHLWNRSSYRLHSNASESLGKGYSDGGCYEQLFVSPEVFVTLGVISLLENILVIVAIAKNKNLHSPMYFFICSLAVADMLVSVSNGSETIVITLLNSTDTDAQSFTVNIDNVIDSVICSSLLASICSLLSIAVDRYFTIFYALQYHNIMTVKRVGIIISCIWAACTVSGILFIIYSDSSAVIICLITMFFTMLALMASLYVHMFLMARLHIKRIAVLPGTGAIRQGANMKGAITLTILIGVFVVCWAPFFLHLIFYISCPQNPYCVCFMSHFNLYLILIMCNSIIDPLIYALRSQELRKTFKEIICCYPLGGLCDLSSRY
Test: cAMP assay (β-galactosidase reporter, cAMP Hunter), MC4R
Assay type: cell-based
Details: agonist cAMP stimulation; read-out: cAMP Assay (EC-50) MC4R
From the text: cAMP Accumulation Measurement Via a β-Galactosidase (β-Gal) Reporter System A chemiluminescence readout system that uses an enzyme fragment complementation (EFC) system with β-galactosidase (β-Gal) as the functional reporter system was used. This assay system for various melanocortin receptor systems is commercially available (cAMP Hunter GPCR assay system, Discoverx Corp, Fremont, Calif.). […]
Bridge positions count the residues as written; N and C are the ends. Square brackets hold non-standard residues; d marks the D form. Peptide text beside a SMILES is read from it. dPhe(4-F) = N[C@H](Cc1ccc(F)cc1)C(=O)O; hCys = N[C@@H](CCS)C(=O)O
Experimental readout: EC50

>>> test_value("CC(=O)N[C@@H](CCCNC(=N)N)C(=O)N[C@H]1CSSC[C@@H](C(N)=O)NC(=O)[C@H](Cc2c[nH]c3ccccc23)NC(=O)[C@H](CCCNC(=N)N)NC(=O)[C@@H](Cc2ccccc2)NC(=O)[C@H](Cc2c[nH]cn2)NC(=O)[C@@H](CC(C)C)NC1=O")
"0.7 nM"

Answer for every listed entry: what is its EC50? The entries follow.
1. CC(=O)N[C@@H](CCCNC(=N)N)C(=O)N[C@H]1CCSSC[C@@H](C(N)=O)NC(=O)[C@H](Cc2c[nH]c3ccccc23)NC(=O)[C@H](CCCNC(=N)N)NC(=O)[C@@H](Cc2ccccc2)NC(=O)[C@H](C)NC1=O [Compound 15] (Ac-R[hCys]A[dF]RWC-NH2; disulfide 2-7)
2. CC(=O)N[C@@H](CCCNC(=N)N)C(=O)N[C@H]1CSSC[C@@H](C(N)=O)NC(=O)[C@H](Cc2c[nH]c3ccccc23)NC(=O)[C@H](CCCNC(=N)N)NC(=O)[C@@H](Cc2ccccc2)NC(=O)[C@H](CCC(N)=O)NC(=O)[C@@H](C)NC1=O [Compound 8] (Ac-RC[dA]Q[dF]RWC-NH2; disulfide 2-8)
3. CC(=O)N[C@@H](CCCNC(=N)N)C(=O)N[C@H]1CSSC[C@@H](C(N)=O)NC(=O)[C@H](Cc2c[nH]c3ccccc23)NC(=O)[C@H](CCCNC(=N)N)NC(=O)[C@@H](Cc2ccc(F)cc2)NC(=O)[C@@H]2CCCN2C(=O)[C@@H](C)NC1=O [Compound 14] (Ac-RC[dA]P[dPhe(4-F)]RWC-NH2; disulfide 2-8)

a:
1: 0.26 nM; 2: 1.6 nM; 3: 24 nM
